- System: Bacteroides thetaiotaomicron
- Test description: growth AUC relative to DMSO control (median of replicates) (fraction); higher = more growth (less inhibition), active = hit call of the paper
- Cond: 20 µM; 24 h
// reported growth AUC per item
Reported metric: growth AUC

> print(dat)
                                    compound                   test.target  assay.result
 1  O=C(NC(=O)c1c(F)cccc1F)Nc1ccc(Cl)c(Oc2ncc(C(F)(F)F)cc2Cl)c1  Bacteroides thetaiotaomicron          1.01
 2              CCCCOC(=O)c1ccccc1C(=O)OCCCC  Bacteroides thetaiotaomicron             1
 3                    CNC(=O)O/N=C/C(C)(C)SC  Bacteroides thetaiotaomicron         0.987
 4                    Clc1cc(Cl)c(Cl)c(Cl)c1  Bacteroides thetaiotaomicron         0.997
 5  CC1(C)[C@H](C=C(Cl)Cl)[C@H]1C(=O)OCc1c(F)c(F)cc(F)c1F  Bacteroides thetaiotaomicron         0.993
 6    Cc1ccn2nc(S(=O)(=O)Nc3c(F)cccc3F)nc2n1  Bacteroides thetaiotaomicron         0.985
 7  CC1(C)C(C=C(Cl)Cl)C1C(=O)OCc1cccc(Oc2ccccc2)c1 (mixture of isomers)  Bacteroides thetaiotaomicron          1.02
 8  CNC(=O)O/N=C(\C)C(C)S(C)=O (stereo unspecified)  Bacteroides thetaiotaomicron         0.983
 9  CC(C)[C@@H](Nc1ccc(C(F)(F)F)cc1Cl)C(=O)OC(C#N)c1cccc(Oc2ccccc2)c1 (stereo partly specified)  Bacteroides thetaiotaomicron         0.994
10                      COc1c(Cl)ccc(Cl)c1Cl  Bacteroides thetaiotaomicron          1.01
11                         CCSC(=O)N1CCCCCC1  Bacteroides thetaiotaomicron         0.995
12                    O=P(OCCCl)(OCCCl)OCCCl  Bacteroides thetaiotaomicron         0.972
13    CCOC(=O)c1cn2nc(OP(=S)(OCC)OCC)cc2nc1C  Bacteroides thetaiotaomicron         0.991
14     O=[N+]([O-])c1ccc(Oc2ccc(Cl)cc2Cl)cc1  Bacteroides thetaiotaomicron          0.99
15  CNC(=O)O/N=C/C(C)(C)S(C)=O (stereo unspecified)  Bacteroides thetaiotaomicron         0.988
16                 N#CN=C1SCCN1Cc1ccc(Cl)nc1  Bacteroides thetaiotaomicron         0.999
17  ClCC1C(CCl)C2(Cl)C(Cl)=C(Cl)C1(Cl)C2(Cl)Cl (stereo unspecified)  Bacteroides thetaiotaomicron         0.994
18                    CCOP(=S)(OCC)Oc1cnccn1  Bacteroides thetaiotaomicron         0.985
19                    CNC(=O)Oc1cccc2ccccc12  Bacteroides thetaiotaomicron         0.998
20  CNC1=C(c2cccc(C(F)(F)F)c2)C(=O)C(c2ccccc2)O1 (stereo unspecified)  Bacteroides thetaiotaomicron         0.986
21                 CSc1nnc(C(C)(C)C)c(=O)n1N  Bacteroides thetaiotaomicron         0.996

----------
- System: Akkermansia muciniphila
- Test description: growth AUC relative to DMSO control (median of replicates) (fraction); higher = more growth (less inhibition), active = hit call of the paper;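 active = AUC reduced over 20% with Padj below 0.05 in at least 2 of 3 replicates; inactive = otherwise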
- Cond: 20 µM; 24 h
Outcome codes: active, inactive

> print(dat)
                                    compound  qualitative.label
 1             COP(=S)(OC)Oc1c(Cl)cc(C)cc1Cl           inactive
 2       CC(C)(C)c1ccc(CCOc2ncnc3ccccc23)cc1           inactive
 3  O=CNC(N1CCN(C(NC=O)C(Cl)(Cl)Cl)CC1)C(Cl)(Cl)Cl (centres undefined)           inactive
 4             CC(C)OP(=O)(OC(C)C)SCc1ccccc1           inactive
 5  CCC(C)c1cc([N+](=O)[O-])cc([N+](=O)[O-])c1OC(=O)C=C(C)C (centres undefined)           inactive
 6                    N#Cc1cc(Br)c(O)c(Br)c1           inactive
 7      CCOP(=S)(OCC)Oc1ccc([N+](=O)[O-])cc1           inactive
 8  COc1cc(OC)nc(NC(=O)NS(=O)(=O)c2cc(NC=O)ccc2C(=O)N(C)C)n1           inactive
 9              c1ccc2c(c1)-c1cccc3cccc-2c13           inactive
10  ClC1=C(Cl)C2(Cl)C3COCC3C1(Cl)C2(Cl)Cl (centres undefined)             active
11  ClC1=C(Cl)C2(Cl)[C@H]3[C@H]4O[C@H]4[C@H](Cl)[C@H]3C1(Cl)C2(Cl)Cl (single isomer, unassigned; isomer a)           inactive
12                                 S=C1NCCN1           inactive
13  ClC1=C(Cl)C2(Cl)C3C(Cl)C=CC3C1(Cl)C2(Cl)Cl (centres undefined)           inactive
14            CC(C)N(Cc1ccccc1)C(=O)C(C)(C)C           inactive
15                               Oc1ccccc1Cl           inactive
16      CN(C)C(=S)[S-].CN(C)C(=S)[S-].[Zn+2]           inactive
17             CCOP(=S)(OCC)SCSP(=S)(OCC)OCC           inactive
18  CC1(C)C(C=C(Cl)Cl)C1C(=O)OC(C#N)c1ccc(F)c(Oc2ccccc2)c1 (mixture of isomers)           inactive
19                                 Nc1ccncc1           inactive
20       CO/N=C(/C(=O)OC)c1ccccc1COc1ccccc1C           inactive
21  C=CC1(C)OC(=O)N(c2cc(Cl)cc(Cl)c2)C1=O (centres undefined)           inactive
22  C=CCC1=C(C)C(OC(=O)C2C(C=C(C)C)C2(C)C)CC1=O (centres undefined)           inactive
23              CCOP(=S)(OCC)Oc1ccc(Cl)cc1Cl           inactive
24                O=C(O)COc1cc(Cl)c(Cl)cc1Cl           inactive
25  O=c1oc2ccccc2c(O)c1C1CCCc2ccccc21 (centres undefined)           inactive
26  CC(=O)CC(c1ccco1)c1c(O)c2ccccc2oc1=O (centres undefined)           inactive
27      CCOP(=O)(OCC)Oc1ccc([N+](=O)[O-])cc1           inactive
28                              O=NN(CCO)CCO           inactive
29  ClC1=C(Cl)C(Cl)(C2(Cl)C(Cl)=C(Cl)C(Cl)=C2Cl)C(Cl)=C1Cl           inactive

----------
- Tested on: Bacteroides dorei
- Test description: growth AUC relative to DMSO control (median of replicates) (fraction); higher = more growth (less inhibition), active = hit call of the paper;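 active = AUC reduced over 20% with Padj below 0.05 in at least 2 of 3 replicates; inactive = otherwise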
- Cond: 20 µM; 24 h
Labels: true (active), false (inactive)

Molecule	Qualitative label
FC(F)C(F)(F)OCC(Cn1cncn1)c1ccc(Cl)cc1Cl (stereo not drawn)	false
CCc1cnc(C2=NC(C)(C(C)C)C(=O)N2)c(C(=O)O)c1 (stereo not drawn)	false
CCOC(=O)c1ccccc1S(=O)(=O)NC(=O)Nc1nc(Cl)cc(OC)n1	false
CCCOCC(=Nc1ccc(Cl)cc1C(F)(F)F)n1ccnc1	false
COc1ccc(-c2ccccc2)cc1NNC(=O)OC(C)C	false
COc1cc(OC)nc(Sc2cccc(Cl)c2C(=O)O)n1	false
CO/N=C(/C(=O)OC)c1ccccc1CO/N=C(\C)c1cccc(C(F)(F)F)c1	false
CCCCCCCC(=O)Oc1c(I)cc(C#N)cc1I	false
CN(C)C(=O)C(c1ccccc1)c1ccccc1	false
Fc1ccc(C2(Cn3cncn3)OC2c2ccccc2Cl)cc1 (stereo not drawn)	false
CN=C=S	false
ClC1C(Cl)C(Cl)C(Cl)C(Cl)C1Cl (mixture of isomers)	false
CCCCN(CCCC)SN(C)C(=O)Oc1cccc2c1OC(C)(C)C2	false
CO/C=C(/C(=O)OC)c1ccccc1COc1cccc(C(F)(F)F)n1	false
CC(C)C1(C)N=C(c2ncccc2C(=O)O)NC1=O (stereo not drawn)	false
Clc1ccc(Cl)cc1	false
OC[C@@H](O)[C@H]1O[C@@H]2O[C@H](C(Cl)(Cl)Cl)O[C@@H]2[C@H]1O (mixture of isomers)	false
Cc1ccccc1[N+](=O)[O-]	false
O=c1ccc(=O)[nH][nH]1	false
COP(=O)(OC)Oc1ccc([N+](=O)[O-])cc1	false
CC1(C)C(C=C(Cl)Cl)C1C(=O)OC(C#N)c1cccc(Oc2ccccc2)c1 (mixture of isomers)	false
COC(=O)[C@@H](C)N(C(=O)Cc1ccccc1)c1c(C)cccc1C	false
O=C(NC(=O)c1c(F)cccc1F)Nc1ccc(Cl)c(Oc2ncc(C(F)(F)F)cc2Cl)c1	false
Cc1cc(C(C#N)c2ccc(Cl)cc2)c(Cl)cc1NC(=O)c1cc(I)cc(I)c1O (stereo not drawn)	true
Nc1c(Cl)c(F)nc(OCC(=O)O)c1Cl	false
C=C/C=C/CC1=C(C)C(OC(=O)[C@@H]2C(/C=C(\C)C(=O)OC)C2(C)C)CC1=O.C=C/C=C/CC1=C(C)[C@@H](OC(=O)[C@@H]2C(C=C(C)C)C2(C)C)CC1=O (stereo partly drawn)	false
CNC(=S)S	false
CS(=O)(=O)c1ccc(C(=O)C2C(=O)CCCC2=O)c(Cl)c1	false

These entries and their values trace back to the supplement of paper PMC12669032.
